From: patent US20250206841A1

assayTarget: T1, human Trop-2 expressed on cell surface (human, UniProt P09758 27-323)
T1 sequence (looked up): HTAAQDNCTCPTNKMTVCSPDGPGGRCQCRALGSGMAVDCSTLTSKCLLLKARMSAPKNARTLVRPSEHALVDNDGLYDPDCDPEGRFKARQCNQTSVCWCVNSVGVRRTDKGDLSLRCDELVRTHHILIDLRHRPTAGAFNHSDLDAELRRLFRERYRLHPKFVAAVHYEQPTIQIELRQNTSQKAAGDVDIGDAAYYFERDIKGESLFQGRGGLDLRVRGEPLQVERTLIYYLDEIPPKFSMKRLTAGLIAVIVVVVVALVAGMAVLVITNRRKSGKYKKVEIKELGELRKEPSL
testDescription: cell-based or functional assay
Overview of recorded EC50 of ADCC (NFAT-CD16 reporter), MDA-MB-231 for various binders
Record the value in nM, omitting the unit from your answer.

binder: 72F12 (antibody, V domains shown, Rabbit-derived clone; LEM construct: VH + rabbit IgG CH1 + human IgG1 CH2-CH3) VH: QEQLKESGGGLVQPGGSLKLSCKASGFDFNNYGVSWVRQAPGKGLEWIAYIYPAFHNTYYATWVNGRFTISSHNAQNTLYLQLNSLTAADTATYFCARDAGSVDYNFNLWGPGTLVTVSS VL: DVVMTQTPASVEVAVGGTVTIKCQASKNIDSNLAWYQQKPGQPPKQLIYAASTLASGVSSRFSGSGYGAEFTLTISGVECADAATYYCQQALTIGNVDNPFGGGSEVVVK
numericResult: 0.07

Incoming: Name the recorded EC50 of ADCC (NFAT-CD16 reporter), MDA-MB-231 for 5D4-1 (antibody, V domains shown) VH: QQLEESGGGLVKPEGSLTLTCKGSGFDFSGTYWMWWVRQAPGKGLEWIAPIYVGSGSSTYYASWAKGRFTISSTSSTAVTLQATSLTAADTATYFCARGATNNVFMNYFNLWGPGTLVTVSS VL: FEMTQTPSSVSEPVGGTVTIKCQASEDISSNLGWYQQKPGQPPKLLIYGASTLASGVPSRFKGSGSGTEFTLTISDLEPADAATYYCQTSYYIDDGVNGFGGGTEVVVK .
Outgoing: 0.11

Incoming: And the next one, 10A9-2 (antibody, V domains shown) VH: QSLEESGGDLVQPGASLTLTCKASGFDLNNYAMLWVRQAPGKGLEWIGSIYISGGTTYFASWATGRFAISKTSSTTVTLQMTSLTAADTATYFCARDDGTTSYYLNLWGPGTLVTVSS VL: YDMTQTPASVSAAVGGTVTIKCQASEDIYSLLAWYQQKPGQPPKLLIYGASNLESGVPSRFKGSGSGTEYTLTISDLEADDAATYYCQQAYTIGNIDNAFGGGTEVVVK ?
Outgoing: 0.07

Incoming: And the next one, 5D4-2 (antibody, V domains shown) VH: QQLEESGGGLVKPEGSLTLTCKGSGFDFSGTYWMWWVRQAPGKGLEWIASIYVGSGSSTYYASWAKGRFTISSTSSTAVTLQATSLTAADTATYFCARGATNNVFMNYFNLWGPGTLVTVSS VL: FEMTQTPSSVSEPVGGTVTIKCQASEDISSNLGWYQQKPGQPPKLLIYGASTLASGVPSRFKGSGSGTEFTLTISDLEAADAATYYCQTSYYIDDGVNGFGGGTEVVVK ?
Outgoing: 0.08

Incoming: And the next one, 9F7 (antibody, V domains shown, Rabbit-derived clone; LEM construct: VH + rabbit IgG CH1 + human IgG1 CH2-CH3) VH: QEQLKESGGGLVQPGGSLTLSCKASGFDFNNYGVSWVRQAPGKGLEWIGYIYPAYHNTYYATWVNGRFTISSHNAQNTLYLQLNTLTAADTATYFCARDTGSTDYNFNLWGPGTLVTVSS VL: DVVMTQTPASVEVAVGGTVTIKCQASEDIESYLAWYQQKPGQPPKLLIYEASKLASGVSSRFSGGGYGTEFTLTISGVECADAATYYCQQALTVGNVDNPFGGGSEVVVK ?
Outgoing: 0.03

Incoming: And the next one, 1D10 (antibody, V domains shown, Rabbit-derived clone; LEM construct: VH + rabbit IgG CH1 + human IgG1 CH2-CH3) VH: QEQLKESGGGLVQPGGSLTLSCKASGFDFNYYGVSWVRQAPGKGLEWIGYIYPAYHNTYYATWVNGRFTISSHNAQNTLYLQLNTLTAADTATYFCARDAGSTDYNLNLWGPGTLVTVSS VL: DVVMTQTPASVEVAVGGTVTIKCQASEDIESYLAWYQQKPGQPPRLLIYEASKLASGVSSRFSGGGYGTDFTLTISGVECADAATYYCHQALTIGNVDNPFGGGGEVVVK ?
Outgoing: 0.04

Incoming: And the next one, 62E3 (antibody, V domains shown, Rabbit-derived clone; LEM construct: VH + rabbit IgG CH1 + human IgG1 CH2-CH3) VH: QEQLKESGGGLVQPGGSLKLSCKASGFDFNEYGVSWVRQAPGKGLEWIAYIYPAFHNTYYATWVNGRFTISSHNAQNTLYLQLNTLTAADTATYFCARDAGTTDYNFNLWGPGTLVTVSS VL: DVVMTQTASPVSAAVGGTVTIKCQASEDIESYLAWYQQKPGQPPKLLIYEASKLASGVSSRFSGSGYGTEFTLTISGVECADAATYYCQQALTIGNVDNPFGGGSEVVVK ?
Outgoing: 0.04

Incoming: And the next one, 63H3 (antibody, V domains shown, Rabbit-derived clone; LEM construct: VH + rabbit IgG CH1 + human IgG1 CH2-CH3) VH: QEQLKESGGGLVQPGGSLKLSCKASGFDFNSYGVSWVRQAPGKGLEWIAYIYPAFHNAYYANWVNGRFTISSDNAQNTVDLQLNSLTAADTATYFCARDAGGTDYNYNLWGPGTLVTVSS VL: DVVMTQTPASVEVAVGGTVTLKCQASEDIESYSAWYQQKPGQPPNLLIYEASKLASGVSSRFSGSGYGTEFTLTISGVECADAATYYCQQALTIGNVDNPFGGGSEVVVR ?
Outgoing: 0.03

Incoming: And the next one, 9D7-2 (antibody, V domains shown) VH: QSLEESGGDLVQPGASLTLTCKASGFDLNNYSILWVRQAPGKGLEWIGSIYISGGSTYYANWAKGRFAISKTSSTTVTLQMTSLTAADTATYFCARDDGTASYYLNLWGPGTLVTVSS VL: YDMTQTPASVSEPVGGTVTIKCQASEDIYKLLAWYQQKPGQPPKLLIYAASDLESGVPSRFKGRGSGTDYTLTISDLEAADAATYYCQQAYTIGNIDNSFGGGTEVVVK ?
Outgoing: 0.11
